target: CYP3A4 (Homo sapiens, UniProt P08684); assay: inhibition of testosterone metabolism in Caco-2/TC7 cells (HPLC); format: cell-based; conditions: read-out: % inhibition at 10 μM
Sequence (P08684 2-503): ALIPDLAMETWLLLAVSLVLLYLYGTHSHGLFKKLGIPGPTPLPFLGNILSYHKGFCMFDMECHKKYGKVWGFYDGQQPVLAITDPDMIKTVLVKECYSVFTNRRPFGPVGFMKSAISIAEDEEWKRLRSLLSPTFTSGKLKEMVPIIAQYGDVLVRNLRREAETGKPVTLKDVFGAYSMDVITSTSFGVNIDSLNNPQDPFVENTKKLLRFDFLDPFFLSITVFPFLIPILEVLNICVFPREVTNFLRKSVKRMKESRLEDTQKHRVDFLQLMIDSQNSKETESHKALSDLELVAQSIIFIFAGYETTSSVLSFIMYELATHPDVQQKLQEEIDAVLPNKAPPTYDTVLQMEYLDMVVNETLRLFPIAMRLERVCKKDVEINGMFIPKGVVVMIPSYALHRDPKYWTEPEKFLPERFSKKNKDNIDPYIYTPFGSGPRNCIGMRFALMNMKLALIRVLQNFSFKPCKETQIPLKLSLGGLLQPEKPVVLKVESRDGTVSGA
Kindly state inhibition at 10 µM for each of the entries shown.
Answers are plain numbers, in %.

Could you tell me inhibition at 10 µM for each of these compounds? They are listed below.
1. CC(=O)Oc1ccc(/C=C/c2cc(O)cc(O)c2)cc1 [MAR, 4′-acetoxy-3,5-hydroxy-stilbene]
2. CC(=O)Oc1ccc(/C=C/c2cc(OC(C)=O)cc(OC(C)=O)c2)cc1 [TAR, 3,4′,5-acetoxystilbene]
3. CC(=O)Oc1ccc(/C=C/c2cc(O)cc(OC(C)=O)c2)cc1 [DAR, 3,4′-acetoxy-5-hydroxy-stilbene]

1. 24
2. 10
3. 45
